System: CCRF-CEM
test-protocol: NCI tumour cell line growth inhibition, 48 h
Activity calls are given as the source filed them. Cut-off read from the data, not from the text of the source: active = GI50 up to about 1.1 µM and inactive = higher.
Give one outcome, nothing more. List: label 1 for active, label 0 for inactive

Look up the recorded call for CCOC(=O)C1CCn2c(nc3c(=O)n(C)c(=O)n(C)c32)S1 (stereo unspecified) in this test.
label 0

Look up the recorded call for `Cc1ccc2nc(NC(=O)/C(Cc3nc4ccc(Cl)cc4nc3O)=N\NC(C)(C)C)sc2c1` in this test.
label 0

Look up the recorded call for `COc1ccc(/C(Cl)=C(\C=O)c2ccc(OC)c(OC)c2)cc1` in this test.
label 0

Look up the recorded call for `COC(=O)[C@]1(C)CCCn2c(=O)n(-c3ccccc3)c(=O)n21` in this test.
label 0

Look up the recorded call for O=C1CCC2(c3ccc(Cl)cc3)Nc3ncncc3N12 (stereo unspecified) in this test.
label 0

Look up the recorded call for `O=C1C(Nc2ccccc2)=CC2=NCCc3n[nH]c1c32` in this test.
label 0

Look up the recorded call for `C/C(=N\NC(=O)N/N=C(\C)c1ccccn1)c1ccccn1` in this test.
label 0

Look up the recorded call for CC(C)N(C(=O)C12C3C4C1C1C2C3C41I)C(C)C (stereo unspecified) in this test.
label 0

Look up the recorded call for COC(=O)C1=C(O)c2cc3c(cc2[C@H](c2cc(OC)c(OC)c(OC)c2)C1C(=O)OC)OCO3 (stereo partly specified) in this test.
label 0

Look up the recorded call for `CCc1nc(Cl)nc(Cl)c1Cl` in this test.
label 1

Look up the recorded call for O=C1/C(=C/c2ccc(Cl)cc2)Oc2cc(O)ccc21 [6-HYDROXY-4'-CHLORO AURONE] in this test.
label 0

* * *

System: DMS-273
test-protocol: NCI tumour cell line growth inhibition, 48 h
The source made the active and inactive calls. Rule as the data show it: active = GI50 up to about 1.1 µM and inactive = higher.
Give one outcome, nothing more. List: true (1) for active, false (0) for inactive

Look up the recorded call for COC(C(O)c1ccc2c(c1)OCO2)P(=O)(c1ccccc1)c1ccccc1 (stereo not given) in this test.
false (0)

Look up the recorded call for `COc1cc(/C=C/C(=O)O)ccc1C(=O)OCc1ccccc1` in this test.
false (0)

Look up the recorded call for COc1c(O)c2c3c(c(C)cc(O)c3c1O)C(=O)C(O)(C(C)(C)C(C)=O)C2=O (stereo not given) in this test.
false (0)

Look up the recorded call for `Cc1ccc(/C=C2\CCCC\C2=N\O)cc1` in this test.
false (0)

Look up the recorded call for `O=C(Nc1ccccc1)O/N=C1/CCCC/C1=C\c1ccccc1` in this test.
false (0)

Look up the recorded call for `Clc1ccc(OCc2nnc3n2N=C(c2ccccc2)CS3)cc1` in this test.
false (0)

Look up the recorded call for NC(CCCCNCc1ccccc1)C(=O)O (stereo not given) in this test.
false (0)

Look up the recorded call for O=C1C2C(C(=O)N1c1ccccc1)C1([N+](=O)[O-])C=C3c4ccccc4N(C(=O)c4ccccc4)C32C2C(=O)N(c3ccccc3)C(=O)C21 (stereo not given) in this test.
false (0)

Look up the recorded call for COC(=O)[C@@]12C(=O)C=CC(=O)[C@@H]1C1C(=CC2COC(C)=O)O[C@@H]2OC3(CCCCC3)O[C@H]12 (stereo not given in full) in this test.
false (0)

Look up the recorded call for `CCOc1ccccc1NC(=O)C1=C(C)NC(C)=C(C(=O)Nc2ccccc2OCC)C1c1cccc([N+](=O)[O-])c1` in this test.
false (0)

Look up the recorded call for CNC(=O)C(C)C1CCC2(C)C=CC(=O)C(C)=C2C1O (stereo not given) in this test.
false (0)

Look up the recorded call for O=C(NNc1ccc([N+](=O)[O-])cc1)C1OC(CO)C(O)C1O (stereo not given) in this test.
false (0)

Look up the recorded call for CCCCCCCCCCCC(=O)C1=C(O)CCC(O)C1=O (stereo not given) in this test.
false (0)

Look up the recorded call for COc1cc2c(c(OC)c1OC)-c1ccc(OC)c(=O)cc1C(NC(=O)COc1ccccc1)CC2 (stereo not given) in this test.
true (1)

Look up the recorded call for CC1=C(CC2C(=O)N(c3ccccc3)S(=O)(=O)NC2C)C(=O)N(c2ccccc2)S(=O)(=O)N1C (stereo not given) in this test.
false (0)

Look up the recorded call for COC(=O)C#CCC1CCCC1C1SCCS1 (stereo not given) in this test.
false (0)

Look up the recorded call for CC(=O)C1(O)Cc2c(O)c3c(c(O)c2C(OC2CC(N)C(O)C(C)O2)C1)C(=O)c1ccccc1C3=O (stereo not given) in this test.
true (1)

Look up the recorded call for O=C(CC1(O)C(=O)Nc2c(Cl)cc(Cl)cc21)c1ccco1 (stereo not given) in this test.
false (0)

Look up the recorded call for O=C(c1ccccc1)C1N=NN(Cc2ccccc2[N+](=O)[O-])C1C(=O)c1ccccc1 (stereo not given) in this test.
false (0)

Look up the recorded call for `Cn1nc(-c2ccccc2)c(C(=O)/C=C/c2ccc(Cl)cc2)c(N2CCCCC2)c1=O` in this test.
false (0)

Look up the recorded call for `COC(=O)CCc1cccnc1/C=N/O` in this test.
false (0)

Look up the recorded call for `c1ccc2c(c1)nc1n2CSC1` in this test.
false (0)

Look up the recorded call for C=CCCCCC1CCC2CCC(CCCCC=C)N12 (stereo not given) in this test.
false (0)

Look up the recorded call for `COC(=O)C1=C(O)c2cc3c(cc2[C@H](c2cc(OC)c(OC)c(OC)c2)C1)OCO3` in this test.
false (0)

Look up the recorded call for CC1(O)CC2C(CC1SCCO)C2(C)C (stereo not given) in this test.
false (0)
